These entries and their values trace back to patent US20240350643A1.

inhibition at 1 µM values, listed per item
molecular target: c-Myc protein (Homo sapiens, UniProt P01106); construct: endogenous in cells; host or cells: HL60 cells; test: Ability of compounds to degrade c-Myc protein in HL60 cells (ELISA); type: cell-based; details: HL-60, 1 μM compound, 24 h, read-out: HL60 cells Protein degradation rate (1 μM)
Sequence (P01106 whole entry): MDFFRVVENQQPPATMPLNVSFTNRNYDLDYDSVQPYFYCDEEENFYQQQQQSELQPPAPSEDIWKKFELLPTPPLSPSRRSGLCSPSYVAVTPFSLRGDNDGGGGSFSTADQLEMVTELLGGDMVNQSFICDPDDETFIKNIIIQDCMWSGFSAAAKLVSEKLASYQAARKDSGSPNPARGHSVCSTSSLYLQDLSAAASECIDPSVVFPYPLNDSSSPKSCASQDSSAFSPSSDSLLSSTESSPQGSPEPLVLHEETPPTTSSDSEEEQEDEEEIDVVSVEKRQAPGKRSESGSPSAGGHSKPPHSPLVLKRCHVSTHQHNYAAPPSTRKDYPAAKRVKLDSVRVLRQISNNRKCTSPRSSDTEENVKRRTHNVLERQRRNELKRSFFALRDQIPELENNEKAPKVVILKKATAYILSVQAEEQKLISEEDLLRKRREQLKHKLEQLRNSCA

INSERT INTO measurements (molecule, result) VALUES
  ('O=C(Cc1cccc2ccccc12)NCc1ccc(CC(=O)Nc2ccc3c(c2)C(=O)N(C2CCC(=O)NC2=O)C3=O)cc1 (stereo not shown) [A165]', '60 to 90%'),
  ('O=C(Cn1c2ccccc2c2ccccc21)NCCCCCCNC(=O)c1ccc2c(c1)C(=O)N(C1CCC(=O)NC1=O)C2=O (stereo not shown) [A1]', '30 to 60%'),
  ('CN(Cc1ccc(CNC(=O)c2ccc3c(c2)C(=O)N(C2CCC(=O)NC2=O)C3=O)cc1)C(=O)Cc1cccc2ccccc12 (stereo not shown) [A71]', '60 to 90%'),
  ('O=C1CCC(N2C(=O)c3ccc(CNCc4ccc(C(=O)NCCn5c6ccccc6c6cccnc65)cc4)cc3C2=O)C(=O)N1 (stereo not shown) [A180]', '60 to 90%'),
  ('O=C1CCC(N2C(=O)c3ccc(C(=O)NCc4ccc(CN(CCc5cccc6ccccc56)C(=O)C5CC5)cc4)cc3C2=O)C(=O)N1 (stereo not shown) [A81]', '60 to 90%'),
  ('O=C(CC1c2ccccc2-c2ccccc21)NCCCCCCNC(=O)c1ccc2c(c1)C(=O)N(C1CCC(=O)NC1=O)C2=O (stereo not shown) [A11]', '10 to 30%');

Entry O=C1CCC(N2Cc3cc(C(=O)NCc4ccc(C5(NC(=O)Cc6cccc7ccccc67)CC5)cc4F)ccc3C2=O)C(=O)N1 (stereo not shown) [A163] , tested on c-Myc protein (Homo sapiens, UniProt P01106), has a reported inhibition at 1 µM of 60 to 90%
